- Tested on: CP286
- experimentDescription: qHTS profiling for inhibitors of Plasmodium falciparum proliferation (AID 504749); further: nearly all actives have a fitted effect of over 60% in size; further: potency means the concentration at half of the fitted maximal effect
- testSettings: P. falciparum in erythrocytes, SYBR Green DNA, 72 h; series mostly up to 28.7 µM
Inconclusive results are not listed. The source made the active and inactive calls. The call rests on the fitted dose curve; in most records, active means well fitted inhibition curve with a large enough effect; inconclusive means small, poorly fitted or top-dose-only effect; inactive means flat fitted curve, though single readings scatter.
testReadout: Potency

# input compound: CCCCCCCCCCCCCCCC[N+](C)(C)Cc1ccccc1 ; wanted: its Potency
2.82 µM (active)

# input compound: Nc1c2ccccc2nc2ccccc12 ; wanted: its Potency
5.01 µM (active)

# input compound: CC(NCCC(c1ccccc1)c1ccccc1)c1ccccc1 (stereo unspecified) ; wanted: its Potency
3.98 µM (active)

# input compound: CCCCCCCCCCCCCCCC[n+]1ccccc1 ; wanted: its Potency
2.51 µM (active)

# input compound: CN1CCC(Nc2ncc3ncnc(Nc4ccc(F)c(Cl)c4)c3n2)CC1 ; wanted: its Potency
11.2 µM (active)

###

- Tested on: CRL-7250
- experimentDescription: Cytotoxic Profiling of Annotated Libraries Using Quantitative High-Throughput Screening (AID 1296008); further: on the % scale 0 is the no-effect control and ±100 the full control effect; nearly all actives have a fitted effect of over 60% in size
- testSettings: Five cell lines viability, CellTiter-Glo ATP luminescence, 48-72 h; stronger effect = lower value
Records with an inconclusive call do not appear.
What max response was measured for each of the following?
Reply numerically in %, unit not repeated.

# input compound: CC(C)(C)NCC(O)COc1ccccc1OCC1CCCO1 (stereo unspecified) ; wanted: its max response
-2.81

# input compound: CCOC(=O)C(=O)CCc1ccccc1 ; wanted: its max response
-13.2

# input compound: Cc1cccc(OCC(O)CNC(C)(C)C)c1C (stereo unspecified) ; wanted: its max response
-7.39

# input compound: CC(=O)Nc1ccc(S(=O)(=O)Nc2cc(C)on2)cc1 ; wanted: its max response
-2.31

# input compound: CCCC(=O)Nc1ccc(O)c(C(C)=O)c1 ; wanted: its max response
-0.565

# input compound: Nc1nnnn1-c1ccccc1 ; wanted: its max response
-0.0528

# input compound: COC(=O)/C=C\C(=O)OC ; wanted: its max response
-5.33

# input compound: O=C(O)CCC(=O)OC[C@@H](NC(=O)C(Cl)Cl)[C@H](O)c1ccc([N+](=O)[O-])cc1 ; wanted: its max response
-4.73

# input compound: CC(C)(C)C(=O)OCOC(=O)C1N2C(=O)CC2S(=O)(=O)C1(C)C (stereo unspecified) ; wanted: its max response
-2.99

# input compound: Cc1nn(-c2ccccc2)c(C)c1/C=N/N1CCN(Cc2ccccc2)CC1 ; wanted: its max response
4.78

# input compound: NC(=O)COCCN1CCN(C(c2ccccc2)c2ccc(Cl)cc2)CC1 (stereo unspecified) ; wanted: its max response
0.918

# input compound: Cc1onc(-c2ccccc2)c1C(=O)Cl ; wanted: its max response
-2.71

# input compound: CN(C)c1cc2c(Nc3ccc4c(cnn4Cc4ccccc4)c3)ncnc2cn1 ; wanted: its max response
-15

# input compound: C[C@]12CCC(=O)C=C1CC[C@@H]1[C@@H]2[C@@H](O)C[C@@]2(C)[C@H]1CC[C@]2(O)C(=O)COC(=O)CCC(=O)O ; wanted: its max response
-0.174

# input compound: CCCCC(CC)COC(=O)c1ccccc1C(=O)O (stereo unspecified) ; wanted: its max response
-9.5

# input compound: COC(=O)C1=C(C)NC(C)=C(C(=O)OCCc2ccc(N3CCN(C(c4ccccc4)c4ccccc4)CC3)cc2)C1c1cccc([N+](=O)[O-])c1 (stereo unspecified) ; wanted: its max response
-8.49

# input compound: CC(=O)/C=C/C=C1/C2CCC(C2)C1(C)C (stereo unspecified) ; wanted: its max response
-8.75

# input compound: OC1(c2ccccc2)CCNCC1 ; wanted: its max response
0.914

# input compound: CCC(=O)O[C@H]1[C@H](O[C@@H]2[C@@H](C)[C@H](O[C@H]3C[C@@](C)(OC)[C@@H](O)[C@H](C)O3)[C@@H](C)C(=O)O[C@H](CC)[C@@](C)(O)[C@H](O)[C@@H](C)C(=O)[C@H](C)C[C@@]2(C)O)O[C@H](C)C[C@@H]1N(C)C ; wanted: its max response
0.377

# input compound: CN(C(=O)C(Cl)Cl)c1ccc(OC(=O)c2ccco2)cc1 ; wanted: its max response
4.42

# input compound: C[C@H]1C[C@@H]2[C@H]([C@@H](O)C[C@@]3(C)[C@H]2CC[C@]3(O)C(=O)CO)[C@@]2(C)C=CC(=O)C=C12 ; wanted: its max response
-5.61

###

- experimentDescription: qHTS drug screen for cell cycle checkpoint inhibitors in PARPi-resistant BRCA-mutant ovarian cancer cell lines. (AID 1963452)
- testSettings: PEO1/OlaR viability, CellTiter-Glo luminescence, 96 h; measured here: PEO4 Z-AUC; stronger effect = lower value
hey, just use True if measured Z-AUC is less than 0.4, otherwise False

Please state whether Z-AUC is below 0.4 for O=C(O)[C@H](O)[C@@H](O)[C@H](O[C@@H]1O[C@H](CO)[C@H](O)[C@H](O)[C@H]1O)[C@H](O)CO
False

Please state whether Z-AUC is below 0.4 for O=[N+]([O-])c1ccc(O)c2ncccc12
True

Please state whether Z-AUC is below 0.4 for C[C@H]1C[C@@H]2[C@H]([C@@H](O)C[C@@]3(C)[C@H]2CC[C@]3(O)C(=O)CO)[C@@]2(C)C=CC(=O)C=C12
True

Please state whether Z-AUC is below 0.4 for O=C1NC(=O)/C(=C/c2ccc3c(c2)OC(F)(F)O3)S1
True

Please state whether Z-AUC is below 0.4 for O=[N+]([O-])c1cncn1CCN1CCOCC1
False

Please state whether Z-AUC is below 0.4 for CCCCCCOC(=O)NC(=N)c1ccc(NCc2nc3cc(C(=O)N(CCC(=O)OCC)c4ccccn4)ccc3n2C)cc1
False

Please state whether Z-AUC is below 0.4 for O=C(O)C(=O)Nc1cccc(-c2nn[nH]n2)c1
False

Please state whether Z-AUC is below 0.4 for CCN(CC)CCOc1ccc(/C(=C(\Cl)c2ccccc2)c2ccccc2)cc1
True

Please state whether Z-AUC is below 0.4 for O=[N+]([O-])c1ccc(-c2nc(-c3ccc(F)cc3)c(-c3ccncc3)[nH]2)cc1
True

Please state whether Z-AUC is below 0.4 for C[C@H]1C[C@H]2[C@@H]3CCC4=CC(=O)C=C[C@]4(C)[C@H]3C(=O)C[C@]2(C)[C@@]1(O)C(=O)CO
False

Please state whether Z-AUC is below 0.4 for CCC1=C[C@@H]2CN(C1)Cc1c([nH]c3ccccc13)[C@@](C(=O)OC)(c1cc3c(cc1OC)N(C)[C@H]1[C@@](O)(C(=O)OC)[C@H](OC(C)=O)[C@]4(CC)C=CCN5CC[C@]31[C@@H]54)C2
True

Please state whether Z-AUC is below 0.4 for CC1(C)O[C@@H]2C[C@H]3[C@@H]4CCC5=CC(=O)C=C[C@]5(C)[C@@]4(F)[C@@H](O)C[C@]3(C)[C@]2(C(=O)CO)O1
False

###

- Tested on: MCC-26
- experimentDescription: qHTS assay to identify novel small-molecules to repurpose for Merkel cell carcinoma treatment (AID 1296009); further: nearly all actives have a fitted effect of over 60% in size
- testSettings: MCC and control cell lines, CellTiter-Glo viability, 72 h; series mostly up to 46 µM
Records with an inconclusive call do not appear. Calls of active or inactive are those of the source. Calls come from the whole dose curve; as a rule, active = well fitted inhibition curve with a large enough effect; inconclusive = small, poorly fitted or top-dose-only effect; inactive = flat fitted curve, though single readings scatter.
Tick one outcome: active, inactive

Which outcome did this test record for the compound CNC(=O)c1cnn(-c2nc(N)c3ncn([C@@H]4O[C@H](CO)[C@@H](O)[C@H]4O)c3n2)c1 ?
inactive

Which outcome did this test record for the compound Cc1nc([N+](=O)[O-])cn1-c1ccc([N+](=O)[O-])cc1 ?
inactive

Which outcome did this test record for the compound CC(=O)OC/C=C(C)/C=C/C=C(C)/C=C/C1=C(C)CCCC1(C)C ?
inactive

Which outcome did this test record for the compound Cc1ccccc1N1CCN(CCc2nnc3n2CCCC3)CC1 ?
inactive

Which outcome did this test record for the compound CC[C@@]1(O)C(=O)OCc2c1cc1n(c2=O)Cc2c-1nc1ccccc1c2/C=N/OC(C)(C)C ?
active

Which outcome did this test record for the compound NS(=O)(=O)c1cc(C(=O)NN2C[C@H]3[C@H]4CCC(C4)[C@H]3C2)ccc1Cl ?
inactive

Which outcome did this test record for the compound CC(C)(C)C(O)/C=C/c1ccc2c(c1)OCO2 (stereo not given) ?
inactive

Which outcome did this test record for the compound CCCOc1ccc2c(c1)CC[C@@H]1[C@@H]2CC[C@]2(C)C(OC)CC[C@@H]12 (stereo not given in full) ?
inactive

Which outcome did this test record for the compound Nc1ccc([N+](=O)[O-])c(C(F)(F)F)c1 ?
inactive

Which outcome did this test record for the compound Cc1cccc(C)c1NC(=O)c1ccc(N)cc1 ?
inactive

###

- Tested on: CP269
- experimentDescription: qHTS profiling for inhibitors of Plasmodium falciparum proliferation (AID 504749); further: nearly all actives have a fitted effect of over 60% in size
- testSettings: P. falciparum in erythrocytes, SYBR Green DNA, 72 h; series mostly up to 28.7 µM
- Method: NIH National Institute of Allergy and Infectious Diseases [NIAID] NIH Chemical Genomics Center [NCGC] […] Because mature erythrocytes lack DNA, only Plasmodium-derived DNA is detected. NCGC Assay Protocol Summary: The SYBR Green viability assay was adapted from a method described previously (Plouffe et al., 2008). […] The following morning, fluorescence intensity at 485(14) nm excitation and 535(25) nm emission wavelengths was measured on an EnVision (Perkin Elmer) plate reader. […]
Results filed as inconclusive are left out. Activity calls are given as the source filed them. The call rests on the fitted dose curve; in most records, active means well fitted inhibition curve with a large enough effect; inconclusive means small, poorly fitted or top-dose-only effect; inactive means flat fitted curve, though single readings scatter.
Tick one outcome: active, inactive

Which outcome did this test record for the compound O=S(=O)(O)c1ccc2nc(-c3ccccc3)[nH]c2c1 ?
inactive

Which outcome did this test record for the compound Nc1c2ccccc2nc2ccccc12 ?
active

Which outcome did this test record for the compound CCCCCCCCCCCCCCCC[N+](C)(C)Cc1ccccc1 ?
active

Which outcome did this test record for the compound Nc1ncnc2nc[nH]c12 ?
inactive

Which outcome did this test record for the compound CC(NCCC(c1ccccc1)c1ccccc1)c1ccccc1 (stereo unspecified) ?
active

Which outcome did this test record for the compound CCCCCCCCCCCCCC[N+](C)(C)C ?
active
